# Target: Protein deacetylase HDAC6 (Homo sapiens) (UniProt Q9UBN7)
# Sequence (whole entry): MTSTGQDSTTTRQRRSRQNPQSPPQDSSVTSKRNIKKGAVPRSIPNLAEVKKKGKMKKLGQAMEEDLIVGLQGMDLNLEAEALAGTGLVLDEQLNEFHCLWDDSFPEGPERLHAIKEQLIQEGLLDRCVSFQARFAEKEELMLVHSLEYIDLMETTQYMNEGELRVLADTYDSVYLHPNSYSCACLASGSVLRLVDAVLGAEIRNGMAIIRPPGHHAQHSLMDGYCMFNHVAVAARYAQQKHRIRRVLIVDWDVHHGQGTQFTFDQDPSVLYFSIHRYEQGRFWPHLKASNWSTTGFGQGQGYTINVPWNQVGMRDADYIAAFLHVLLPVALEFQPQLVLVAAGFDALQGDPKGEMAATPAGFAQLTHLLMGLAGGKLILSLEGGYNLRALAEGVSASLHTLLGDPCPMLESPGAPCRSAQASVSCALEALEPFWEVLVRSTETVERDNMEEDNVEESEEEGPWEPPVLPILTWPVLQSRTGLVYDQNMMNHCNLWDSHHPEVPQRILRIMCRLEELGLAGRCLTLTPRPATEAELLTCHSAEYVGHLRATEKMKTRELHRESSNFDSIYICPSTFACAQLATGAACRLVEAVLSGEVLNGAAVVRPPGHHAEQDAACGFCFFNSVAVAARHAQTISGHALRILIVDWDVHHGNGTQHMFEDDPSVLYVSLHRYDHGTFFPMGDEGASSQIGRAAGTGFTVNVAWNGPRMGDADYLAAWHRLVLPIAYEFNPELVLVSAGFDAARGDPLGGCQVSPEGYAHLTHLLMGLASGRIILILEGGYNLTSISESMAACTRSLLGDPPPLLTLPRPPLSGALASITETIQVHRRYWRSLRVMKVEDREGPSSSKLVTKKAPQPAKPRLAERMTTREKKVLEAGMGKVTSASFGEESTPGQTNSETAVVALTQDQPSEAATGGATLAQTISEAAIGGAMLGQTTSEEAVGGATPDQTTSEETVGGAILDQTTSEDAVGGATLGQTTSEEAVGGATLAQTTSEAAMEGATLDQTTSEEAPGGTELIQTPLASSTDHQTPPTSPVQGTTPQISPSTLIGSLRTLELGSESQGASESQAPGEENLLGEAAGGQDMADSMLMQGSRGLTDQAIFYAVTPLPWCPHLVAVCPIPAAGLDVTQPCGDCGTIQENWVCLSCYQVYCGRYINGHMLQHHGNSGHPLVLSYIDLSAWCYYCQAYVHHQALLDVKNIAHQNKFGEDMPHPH
# Condition Description: at 10 µM
The whole screen tested about 5,600 compounds, of which about 390 (7%) showed an effect of 50% or more. The list comes from a sample in which strong results are over-represented; it also holds close analogues and randomly drawn compounds. Non-standard residues stand in square brackets, D forms with d. Residues, ends and D or L forms follow the SMILES beside them. dTrp(2-Me) = Cc1[nH]c2ccccc2c1C[C@@H](N)C(=O)O
Measurement Name: inhibition (%)
Answers are plain numbers, in %.

The cases that follow already have their inhibition on record.
Please indicate inhibition recorded for "C[C@@H]1CCO[C@H]2Cn3cc(C(=O)NCc4ccc(F)cc4F)c(=O)c(O)c3C(=O)N12"
-3.66

Please indicate inhibition recorded for "CN(C)CC/C=C1\c2ccccc2CSc2ccccc21"
33.1

Please indicate inhibition recorded for "Cc1sc(N)c(C(=O)c2cccc(C(F)(F)F)c2)c1C"
17.1

Give measured inhibition for every item shown.
1. Cn1cnc([N+](=O)[O-])c1Sc1ncnc2[nH]cnc12
2. Cn1c(=O)c2c(ncn2CC(=O)Nc2ccc(-c3ccccc3)nn2)n(C)c1=O

[12.8, 41.8]

Give measured inhibition for every item shown.
1. Cc1cccc(Nc2nc(-c3ccncc3)cs2)c1
2. Nc1nc(O)c2c(n1)NCC(CNc1ccc(C(=O)N[C@@H](CCC(=O)O)C(=O)O)cc1)N2 (stereo not given in full)

1. 91.1
2. -7.59

Give measured inhibition for every item shown.
1. CCc1cc2c(c(CC)n1)CCC(=O)N2Cc1ccc(-c2ccccc2-c2nnn[nH]2)cc1
2. CC(N)CCCC(C)(C)O (stereo not given)
3. OCCN1CCN(CC/C=C2/c3ccccc3Sc3ccc(Cl)cc32)CC1
4. COc1ccc(CC2NCCc3c2[nH]c2ccc(C)cc32)c(Cl)c1OC (stereo not given)
5. C[C@@H]1CCCN1CCc1cc2cc(-c3ccc(C#N)cc3)ccc2o1
6. CN1CCN(CC/C=C2/c3ccccc3Sc3ccc(S(=O)(=O)N(C)C)cc32)CC1
7. O=C(O)C[C@H]1CC[C@H](c2ccc(-c3ccc(Nc4ccc(C(F)(F)F)nc4)cn3)cc2)CC1

1: 0.45; 2: 6.48; 3: 89.6; 4: -1.23; 5: 25.1; 6: 30.4; 7: 17.5

Give measured inhibition for every item shown.
1. Cc1cccc(Nc2ccncc2S(=O)(=O)NC(=O)NC(C)C)c1
2. CC(=O)N(O)C/C=C/c1cccc(Oc2ccccc2)c1
3. O=C(c1ccc(F)cc1)C1CCN(CCn2c(=S)[nH]c3ccccc3c2=O)CC1
4. COc1cc2c(cc1NS(=O)(=O)c1ccc(Br)cc1C)n(C)c(=O)n2C
5. O=C1c2c(O)ccc(O)c2C(=O)c2c(NCCNCCO)ccc(NCCNCCO)c21
6. Cc1[nH]c2ccccc2c1C[C@@H](NC(=O)[C@@H](N)Cc1c[nH]cn1)C(=O)N[C@@H](C)C(=O)N[C@@H](Cc1c[nH]c2ccccc12)C(=O)N[C@H](Cc1ccccc1)C(=O)N[C@@H](CCCCN)C(N)=O (H-H[dTrp(2-Me)]AW[dF]K-NH2)

[-9.9, 9.26, 13.2, 19.4, 28.6, -0.06]

----------
# Target: Protein deacetylase HDAC6 (Homo sapiens)
# Condition Description: at 10 µM
In all, about 5,600 compounds went through this assay and about 390 (7%) showed an effect of 50% or more. Many of the other results were omitted from the sample, so strong results are more common in it than they were.
Measurement Name: inhibition (%)
Answers are plain numbers, in %.

The cases that follow already have their inhibition on record.
State measured inhibition of the compound "Cc1nc(C)c(C)nc1C" with Protein deacetylase HDAC6 (Homo sapiens).
-3.53

State measured inhibition of the compound "Cc1cc([C@@H](C)Nc2ccccc2C(=O)O)c2nc(N3CCOCC3)cc(=O)n2c1" with Protein deacetylase HDAC6 (Homo sapiens).
92.5

State measured inhibition of the compound "Cc1c(-c2ccc(-c3ccccc3F)cc2)nc2ccc(F)cc2c1C(=O)O" with Protein deacetylase HDAC6 (Homo sapiens).
-9.14

State measured inhibition of the compound "Cc1c(Cn2c(C)nc3c(C(=O)O)cc(N4CCOCC4)cc32)cccc1C(F)(F)F" with Protein deacetylase HDAC6 (Homo sapiens).
13.4

Read the next record carefully.
State measured inhibition of the compound CC1CCN(C(c2ccc(F)cc2)c2ccc(C(C)C(=O)O)cc2-c2ccc(C(F)(F)F)cc2)CC1 (stereo not given) with Protein deacetylase HDAC6 (Homo sapiens).
27.9

----------
# Target: Protein deacetylase HDAC6 (Homo sapiens) (UniProt Q9UBN7)
# Sequence (whole entry): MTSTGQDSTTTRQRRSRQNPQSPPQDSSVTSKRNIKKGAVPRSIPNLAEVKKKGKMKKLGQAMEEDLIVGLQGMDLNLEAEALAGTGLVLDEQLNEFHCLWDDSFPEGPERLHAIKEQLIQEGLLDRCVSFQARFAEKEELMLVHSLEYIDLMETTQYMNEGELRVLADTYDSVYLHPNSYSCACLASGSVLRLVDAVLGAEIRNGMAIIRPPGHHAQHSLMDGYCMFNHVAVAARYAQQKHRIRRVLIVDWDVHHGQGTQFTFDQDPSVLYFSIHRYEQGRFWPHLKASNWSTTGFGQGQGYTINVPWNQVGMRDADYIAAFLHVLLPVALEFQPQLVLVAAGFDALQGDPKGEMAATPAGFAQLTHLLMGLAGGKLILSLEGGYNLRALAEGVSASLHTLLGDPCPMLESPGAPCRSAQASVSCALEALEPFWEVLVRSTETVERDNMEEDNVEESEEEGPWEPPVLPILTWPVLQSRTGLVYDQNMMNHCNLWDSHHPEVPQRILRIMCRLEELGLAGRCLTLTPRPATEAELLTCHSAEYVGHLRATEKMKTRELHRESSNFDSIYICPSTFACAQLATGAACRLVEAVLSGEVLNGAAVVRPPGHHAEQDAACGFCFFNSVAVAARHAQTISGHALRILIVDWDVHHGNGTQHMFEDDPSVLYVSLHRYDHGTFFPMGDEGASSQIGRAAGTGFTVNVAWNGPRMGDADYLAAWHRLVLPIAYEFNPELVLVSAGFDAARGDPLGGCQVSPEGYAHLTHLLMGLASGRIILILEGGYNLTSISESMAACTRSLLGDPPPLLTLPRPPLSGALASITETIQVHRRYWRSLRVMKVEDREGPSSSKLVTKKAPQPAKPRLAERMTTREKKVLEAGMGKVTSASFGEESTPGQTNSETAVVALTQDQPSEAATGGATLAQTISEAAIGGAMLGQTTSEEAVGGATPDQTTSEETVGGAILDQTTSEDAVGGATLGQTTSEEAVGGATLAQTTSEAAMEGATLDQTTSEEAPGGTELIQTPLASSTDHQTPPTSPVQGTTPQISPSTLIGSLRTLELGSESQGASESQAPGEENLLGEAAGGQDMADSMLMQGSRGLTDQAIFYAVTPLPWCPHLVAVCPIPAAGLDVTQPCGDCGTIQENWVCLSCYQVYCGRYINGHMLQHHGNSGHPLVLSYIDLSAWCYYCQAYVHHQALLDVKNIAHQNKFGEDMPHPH
# Condition Description: at 10 µM
Out of some 5,600 compounds screened, about 390 (7%) showed an effect of 50% or more. Shown is part of a subset that was picked to be rich in strong results.
Measurement Name: inhibition (%)
Numbers only, in %.

Please indicate inhibition recorded for "O=c1cc(N2CCOCC2)nc2c3ccccc3ccn12"
33.6

Give measured inhibition for every item shown.
1. COc1ccc(-c2cc(=O)c3c(OC)c(OC)c(OC)c(OC)c3o2)cc1OC
2. N[C@@H](C(=O)O)c1ccc(O)c(C(=O)O)c1

1: -2.26; 2: 1.46

The measurements presented in this section are drawn from ChEMBL document CHEMBL4808148.
